Target: Sulfonylurea receptors; K-ATP channels (Homo sapiens, UniProt O60706+Q09428+Q14654+Q15842)
Test: Evaluated for K-ATP activity in terms of stable twitch response through field-stimulated landrace pig detrusor assay
Assay type: functional, Sus scrofa
Conditions: target entry is the homologue from another species
Strictly below 500 nM in EC50: yes (1). Otherwise: no (0).

As a guide, the following entries are already answered.
Hello, I'm reviewing records and need to know if EC50 of Cc1ccc([C@H]2C3=C(CCCC3=O)NC3=C2S(=O)(=O)CC3)cc1[N+](=O)[O-] is below 500 nM. Could you check? no (0)

Hello, I'm reviewing records and need to know if EC50 of O=C1CCCC2=C1[C@H](c1ccc(F)c(Br)c1)C1=C(CCS1(=O)=O)N2 is below 500 nM. Could you check? yes (1)

Hello, I'm reviewing records and need to know if EC50 of N#Cc1cccc([C@H]2C3=C(CCCC3=O)NC3=C2S(=O)(=O)CC3)c1 is below 500 nM. Could you check? no (0)

Hello, I'm reviewing records and need to know if EC50 of O=C1CCCC2=C1[C@H](c1ccc(F)c(C(F)(F)F)c1)C1=C(CCS1(=O)=O)N2 is below 500 nM. Could you check? no (0)

Hello, I'm reviewing records and need to know if EC50 of O=C1CCC2=C1[C@@H](c1ccc(F)c(Br)c1)C1=C(CCCS1(=O)=O)N2 is below 500 nM. Could you check? yes (1)

Continuing:
Hello, I'm reviewing records and need to know if EC50 of O=C1CCC2=C1[C@H](c1ccc(F)c(Br)c1)C1=C(CCS1(=O)=O)N2 is below 500 nM. Could you check? yes (1)

Hello, I'm reviewing records and need to know if EC50 of O=C1CCCC2=C1[C@H](c1ccc(Cl)c(Cl)c1)C1=C(CCS1(=O)=O)N2 is below 500 nM. Could you check? yes (1)

Hello, I'm reviewing records and need to know if EC50 of O=C1CCC2=C1C(c1ccc([N+](=O)[O-])s1)C1=C(CCS1(=O)=O)N2 (centres undefined) is below 500 nM. Could you check? yes (1)

Hello, I'm reviewing records and need to know if EC50 of Cc1ccc([C@H]2C3=C(CCCC3=O)NC3=C2S(=O)(=O)CC3)cc1I is below 500 nM. Could you check? yes (1)

====

Target: Sulfonylurea receptors; K-ATP channels (Homo sapiens, UniProt O60706+Q09428+Q14654+Q15842)
Assay: Evaluated for K-ATP activity in terms of change in membrane potential through guinea pig bladder assay
Assay type: functional, Cavia porcellus
Settings: target entry is the homologue from another species
TEST READOUT: pEC50
// pEC50 here means minus log10 of the molar concentration (mol/L)

Guide cases for pEC50, answers given:
Query: pEC50; subject: CC1(C)CCC2=C(C1=O)[C@@H](c1ccc(F)c(Br)c1)C1=C(CCS1(=O)=O)N2 6.97

Query: pEC50; subject: O=C1CCC2=C1[C@@H](c1ccc(F)c(Br)c1)C1=C(CCS1(=O)=O)N2 7.48

Query: pEC50; subject: CC1=C(C#N)C(c2ccc(F)c(Br)c2)C2=C(CCS2(=O)=O)N1 (stereo not given) 7.56

Continuing:
Query: pEC50; subject: CC(=O)C1=C(C)NC2=C(C1c1ccc(F)c(Br)c1)S(=O)(=O)CCC2 (stereo not given) 6.67
